tgt: Disintegrin and metalloproteinase domain-containing protein 10 (Homo sapiens) (UniProt O14672)
Sequence (O14672 214-748 limits assumed): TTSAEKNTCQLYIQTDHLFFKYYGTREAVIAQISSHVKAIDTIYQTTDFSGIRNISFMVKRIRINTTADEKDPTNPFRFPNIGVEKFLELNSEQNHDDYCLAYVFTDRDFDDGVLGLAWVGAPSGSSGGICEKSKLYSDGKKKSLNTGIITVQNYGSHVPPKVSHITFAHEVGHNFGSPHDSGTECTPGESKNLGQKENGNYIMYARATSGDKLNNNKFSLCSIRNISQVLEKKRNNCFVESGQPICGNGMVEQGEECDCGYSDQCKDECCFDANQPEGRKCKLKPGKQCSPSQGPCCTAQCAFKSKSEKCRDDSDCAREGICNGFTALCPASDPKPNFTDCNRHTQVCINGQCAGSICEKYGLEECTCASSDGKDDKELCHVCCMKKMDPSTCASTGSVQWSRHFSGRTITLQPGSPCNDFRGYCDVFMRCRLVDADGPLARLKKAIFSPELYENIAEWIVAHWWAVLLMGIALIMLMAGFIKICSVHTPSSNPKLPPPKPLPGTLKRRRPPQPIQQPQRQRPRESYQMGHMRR
measurementProtocol: human ADAM10 inhibitors, confirmation, biochemical, QFRET, triplicate (AID 743208);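 further: 0% = DMSO wells and 100% = marimastat wells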
runParameters: ADAM10 QFRET peptide cleavage, EDANS fluorescence; at 6.95 µM; hits give high values
Among all 2,100 compounds or so, about 30 (1%) were called active. The list is a sample of the results.
measurementLabel: inhibition (%)
Write down the numeric answer in % and omit the unit.

Answered examples (2):
- smilesRecord: "O=C(Nc1cccc(S(=O)(=O)Nc2ccc(Cl)cc2)c1)c1ccc2c(c1)OCCO2"
  inhibition (%): 8.03
- smilesRecord: "Cc1[nH]c2ccccc2c1C(=O)COC(=O)c1c(-c2ccccc2)noc1C"
  inhibition (%): 3.43

Consider the compound COc1ccc(OCCCn2cccc2/C=C2/C(=N)N3OC(C)=CC3=NC2=O)cc1 . State its measured inhibition.
1.45
